Reference source for all entries: patent US6117841A

target: N-type Ca^2+ Channel (Homo sapiens, UniProt Q00975); construct: host or cells: IMR-32 cells differentiated with dibutyryl cAMP and bromodeoxyuridine; assay: Measurement of N-type Ca2+ channel blocking potencies in IMR-32 cells using the fluorescent Ca2+ indicator Indo-1; format: cell-based; settings: IMR-32 cells, K+ depolarization, 5 μM nitrendipine to block L-type channels; read-out: IMR 32 IC50
Sequence (Q00975 whole entry): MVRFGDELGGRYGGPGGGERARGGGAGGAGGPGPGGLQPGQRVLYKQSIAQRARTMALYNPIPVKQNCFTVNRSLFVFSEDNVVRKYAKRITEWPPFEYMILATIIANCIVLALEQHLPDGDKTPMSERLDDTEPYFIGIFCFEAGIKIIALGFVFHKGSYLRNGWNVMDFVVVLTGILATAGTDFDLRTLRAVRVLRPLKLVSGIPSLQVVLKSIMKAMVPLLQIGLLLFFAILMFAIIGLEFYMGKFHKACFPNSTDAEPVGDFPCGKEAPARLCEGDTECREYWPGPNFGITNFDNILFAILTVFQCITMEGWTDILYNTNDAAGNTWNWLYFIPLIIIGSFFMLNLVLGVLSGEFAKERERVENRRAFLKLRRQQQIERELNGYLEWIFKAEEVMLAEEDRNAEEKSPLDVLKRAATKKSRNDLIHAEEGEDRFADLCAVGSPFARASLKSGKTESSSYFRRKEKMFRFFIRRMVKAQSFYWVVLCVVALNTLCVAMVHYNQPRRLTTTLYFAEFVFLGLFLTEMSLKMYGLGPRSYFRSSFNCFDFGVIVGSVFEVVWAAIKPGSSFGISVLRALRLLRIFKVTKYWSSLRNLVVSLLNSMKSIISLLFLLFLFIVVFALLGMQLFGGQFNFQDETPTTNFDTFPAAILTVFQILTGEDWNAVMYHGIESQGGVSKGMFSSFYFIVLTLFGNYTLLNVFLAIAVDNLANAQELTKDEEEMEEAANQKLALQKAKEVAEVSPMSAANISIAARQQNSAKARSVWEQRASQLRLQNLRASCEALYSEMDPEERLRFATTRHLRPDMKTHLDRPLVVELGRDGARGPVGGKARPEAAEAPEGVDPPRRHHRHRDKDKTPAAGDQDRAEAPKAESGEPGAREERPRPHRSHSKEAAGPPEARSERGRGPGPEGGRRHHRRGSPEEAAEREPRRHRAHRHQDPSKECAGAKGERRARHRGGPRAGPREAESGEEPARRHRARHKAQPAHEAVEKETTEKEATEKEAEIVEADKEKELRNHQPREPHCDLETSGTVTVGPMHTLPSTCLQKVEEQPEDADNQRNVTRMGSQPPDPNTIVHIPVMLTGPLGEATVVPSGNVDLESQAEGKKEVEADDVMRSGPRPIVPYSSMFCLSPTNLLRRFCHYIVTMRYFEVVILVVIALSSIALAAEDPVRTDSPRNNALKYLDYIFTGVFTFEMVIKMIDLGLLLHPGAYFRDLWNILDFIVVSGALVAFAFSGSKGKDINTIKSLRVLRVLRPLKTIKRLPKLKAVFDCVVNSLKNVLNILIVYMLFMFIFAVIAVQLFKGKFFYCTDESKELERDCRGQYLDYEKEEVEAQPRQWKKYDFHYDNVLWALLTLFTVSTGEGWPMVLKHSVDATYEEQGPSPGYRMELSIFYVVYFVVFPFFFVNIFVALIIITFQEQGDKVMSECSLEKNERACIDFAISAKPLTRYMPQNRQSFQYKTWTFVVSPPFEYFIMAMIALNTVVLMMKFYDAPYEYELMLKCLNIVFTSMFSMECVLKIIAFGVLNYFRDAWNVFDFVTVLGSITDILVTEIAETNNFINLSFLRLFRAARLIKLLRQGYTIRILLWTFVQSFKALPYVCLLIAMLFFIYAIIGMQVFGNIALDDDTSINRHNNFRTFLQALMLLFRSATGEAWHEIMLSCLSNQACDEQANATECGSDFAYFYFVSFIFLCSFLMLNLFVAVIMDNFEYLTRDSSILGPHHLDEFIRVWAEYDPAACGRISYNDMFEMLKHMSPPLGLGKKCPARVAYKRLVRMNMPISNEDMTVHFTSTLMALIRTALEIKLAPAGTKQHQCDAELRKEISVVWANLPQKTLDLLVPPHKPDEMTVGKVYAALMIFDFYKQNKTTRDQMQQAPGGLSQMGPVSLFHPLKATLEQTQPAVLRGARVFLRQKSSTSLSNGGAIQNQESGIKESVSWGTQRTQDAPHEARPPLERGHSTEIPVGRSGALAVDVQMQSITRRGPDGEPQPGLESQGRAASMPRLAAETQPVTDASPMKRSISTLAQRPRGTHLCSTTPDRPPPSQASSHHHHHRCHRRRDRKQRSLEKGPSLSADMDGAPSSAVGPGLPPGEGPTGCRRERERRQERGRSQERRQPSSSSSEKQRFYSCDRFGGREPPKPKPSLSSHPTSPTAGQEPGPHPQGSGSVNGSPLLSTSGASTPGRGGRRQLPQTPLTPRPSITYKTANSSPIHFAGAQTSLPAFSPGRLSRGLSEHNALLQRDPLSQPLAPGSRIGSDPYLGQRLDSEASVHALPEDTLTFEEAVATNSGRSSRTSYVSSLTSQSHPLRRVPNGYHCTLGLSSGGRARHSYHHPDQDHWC
Sequence (P54284 whole entry partner): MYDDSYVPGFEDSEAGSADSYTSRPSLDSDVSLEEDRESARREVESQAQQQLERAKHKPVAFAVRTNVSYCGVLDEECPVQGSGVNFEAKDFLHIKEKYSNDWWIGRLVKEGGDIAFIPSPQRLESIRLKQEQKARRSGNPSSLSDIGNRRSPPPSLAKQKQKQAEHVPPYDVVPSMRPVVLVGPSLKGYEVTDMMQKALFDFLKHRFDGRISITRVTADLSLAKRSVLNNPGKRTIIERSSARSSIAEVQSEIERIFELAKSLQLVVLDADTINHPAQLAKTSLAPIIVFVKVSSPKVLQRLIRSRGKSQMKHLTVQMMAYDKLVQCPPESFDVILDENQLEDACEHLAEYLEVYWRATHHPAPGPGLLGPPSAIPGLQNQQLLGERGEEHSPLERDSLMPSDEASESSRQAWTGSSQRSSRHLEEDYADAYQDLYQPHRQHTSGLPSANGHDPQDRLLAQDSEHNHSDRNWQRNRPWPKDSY
Sequence (P54289 25-946 partner limits assumed): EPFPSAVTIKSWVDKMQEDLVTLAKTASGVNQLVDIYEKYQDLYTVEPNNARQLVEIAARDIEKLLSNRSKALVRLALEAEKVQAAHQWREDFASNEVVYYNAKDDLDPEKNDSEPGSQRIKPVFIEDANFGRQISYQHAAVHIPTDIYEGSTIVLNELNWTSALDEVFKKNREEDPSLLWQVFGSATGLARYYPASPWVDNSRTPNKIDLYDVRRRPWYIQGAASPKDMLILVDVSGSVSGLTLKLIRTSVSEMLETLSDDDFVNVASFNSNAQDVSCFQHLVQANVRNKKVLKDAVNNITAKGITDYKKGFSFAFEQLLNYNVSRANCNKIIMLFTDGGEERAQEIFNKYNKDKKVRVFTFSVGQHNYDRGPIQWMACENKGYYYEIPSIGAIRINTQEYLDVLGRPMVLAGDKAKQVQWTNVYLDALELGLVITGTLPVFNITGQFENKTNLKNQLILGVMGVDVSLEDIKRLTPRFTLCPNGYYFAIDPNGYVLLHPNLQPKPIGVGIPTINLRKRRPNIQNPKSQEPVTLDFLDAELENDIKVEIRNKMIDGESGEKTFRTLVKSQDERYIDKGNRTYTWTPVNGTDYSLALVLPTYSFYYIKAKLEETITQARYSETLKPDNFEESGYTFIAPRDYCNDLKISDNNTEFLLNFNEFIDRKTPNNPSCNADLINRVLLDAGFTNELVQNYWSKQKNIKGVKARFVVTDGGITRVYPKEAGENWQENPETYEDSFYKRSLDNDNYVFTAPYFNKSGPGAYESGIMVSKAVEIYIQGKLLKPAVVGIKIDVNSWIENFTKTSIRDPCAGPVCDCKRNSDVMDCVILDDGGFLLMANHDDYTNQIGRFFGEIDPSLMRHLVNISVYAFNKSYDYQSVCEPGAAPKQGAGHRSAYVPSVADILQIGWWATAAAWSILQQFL
Sequence (P54289 947-1103 partner limits assumed): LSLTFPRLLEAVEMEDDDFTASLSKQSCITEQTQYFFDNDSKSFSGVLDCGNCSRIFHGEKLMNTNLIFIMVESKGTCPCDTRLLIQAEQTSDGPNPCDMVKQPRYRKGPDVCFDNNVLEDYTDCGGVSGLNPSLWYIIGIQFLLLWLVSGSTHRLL
Assay Endpoint: IC50 (nM)

INSERT INTO results (molecule, assay_endpoint, assay_result) VALUES
  ('CC(C)C[C@H](NC1CCOCC1)C(=O)N[C@@H](Cc1ccc(OCc2ccccc2)cc1)C(=O)NCCNCc1ccccc1 (relative stereo)', 'IC50', 700),
  ('CCC(C)N(C)C(CC(C)C)C(=O)NC(Cc1ccc(OCc2ccccc2)cc1)C(=O)NC(C)(C)C (racemic)', 'IC50', 1500),
  ('CC(C)C[C@@H](C(=O)N[C@@H](Cc1ccc(OCc2ccccc2)cc1)C(=O)NC(C)(C)C)N(C)CC(C)C (relative stereo)', 'IC50', 380),
  ('CCC(COC)NC(=O)[C@H](Cc1ccc(OCc2ccccc2)cc1)NC(=O)[C@H](CC(C)C)N(C)CCC(C)C (relative stereo)', 'IC50', 800);

a: CCOC(=O)CN(C)[C@@H](CC(C)C)C(=O)N[C@@H](Cc1ccc(OCc2ccccc2)cc1)C(=O)NC(C)(C)C (relative stereo)
b: CC(C)CC(C(=O)NC(Cc1ccc(OCc2ccccc2)cc1)C(=O)NC(C)(C)C)N(C)C1C=CCCC1 (stereo not shown)
Task: // returns a or b , whichever has the lower IC50 When you have decided, please share the label of that item.
Result: b

I: CC(C)C[C@H](N[C@@H]1C=CCCC1)C(=O)NC(Cc1ccc(OCc2ccccc2)cc1)C(=O)NC(C)(C)C (relative stereo)
II: CCC(COC)NC(=O)[C@H](Cc1ccc(OCc2ccccc2)cc1)NC(=O)[C@H](CC(C)C)NC1CCOCC1 (relative stereo)
Task: Hi team, can someone confirm which has the larger IC50: I or II ? Thanks. Kindly state the label of the option you pick.
Result: II
(II: 2400 nM, I: 660 nM)

A: CC(C)CCN(C)[C@@H](CC(C)C)C(=O)N[C@@H](Cc1ccc(OCc2ccccc2)cc1)C(=O)NC(C)(C)C (relative stereo)
B: CC(C)CCNC(CC(C)C)C(=O)NC(Cc1ccc(OCc2ccccc2)cc1)C(=O)OC(C)(C)C (stereo not shown)
Task: Lowest IC50? choose A or B Indicate which entry you chose by stating its label.
Result: A
(A: 320 nM, B: 460 nM)

P: CC(C)CC(C(=O)NC(Cc1ccc(OCc2ccccc2)cc1)C(=O)NC(C)(C)C)N(C)Cc1ccc(C(C)(C)C)cc1 (stereo not shown)
Q: CC(C)C[C@@H](C(=O)N[C@@H](Cc1ccc(OCc2ccccc2)cc1)C(=O)NC1CCN(Cc2ccccc2)C1)N1CCOCC1 (relative stereo)
Task: Please state the entry with greater IC50 among P and Q . Provide the label of your selected option as the answer.
Result: Q
(Q: 1300 nM, P: 40 nM)

###

biological target: N-type Ca^2+ Channel (Homo sapiens, UniProt Q00975); construct: host or cells: IMR-32 cells differentiated with dibutyryl cAMP and bromodeoxyuridine; assay: Measurement of N-type Ca2+ channel blocking potencies in IMR-32 cells using the fluorescent Ca2+ indicator Indo-1; assay type: cell-based; conditions: IMR-32 cells, K+ depolarization, 5 μM nitrendipine to block L-type channels; read-out: IMR 32 IC50
Assay Endpoint: IC50 (nM)

INSERT INTO assay_data (molecule, assay_endpoint, assay_result) VALUES
  ('CC(C)CCN(C)[C@@H](CC(C)C)C(=O)N[C@@H](Cc1ccc(OCc2ccccc2)cc1)C(=O)NCCCn1ccnc1 (relative stereo)', 'IC50', 1600);

I: CC(C)C[C@@H](C(=O)N[C@@H](Cc1ccc(OCc2ccccc2)cc1)C(=O)NC(C)(C)C)N(C)Cc1ccc[nH]1 (relative stereo)
II: CC(C)C[C@@H](C(=O)N[C@@H](Cc1ccc(OCc2ccccc2)cc1)C(=O)NC1CCN(Cc2ccccc2)CC1)N(C)CC1CCCCC1 (relative stereo)
Task: Between I and II , which one shows the larger IC50 value? Your answer should be the label attached to the chosen record.
Result: I
